# System: HCT-15 colon
# Run Description: NCI-60 one-dose screen, 48 h (100 = growth as untreated, 0 = no growth, -100 = all killed)
# Particulars: 10 µM unless noted
This is part of a sample that, as a whole, favours compounds with a hit. Of some 83,000 tested, about 20% had one in any assay. Activity calls are given as the source filed them. The calls were made as follows: active = growth percent below 10; inactive = the rest.
Recorded Metric: growth

                                    molecule                    result
 0  N#CC1=C(N)Oc2c(sc3c(Br)cccc23)C1c1ccccn1 (stereo unspecified)          28.5% (inactive)
 1  O=C(NNc1ccccc1)C1CCCN1 (stereo unspecified)          40.5% (inactive)
 2                    NC1=CC(=O)c2cccnc2C1=O          19.9% (inactive)
 3  CCCCCCCCN(CCCCCCCC)CC(O)c1cc(Cl)ccc1OC (stereo unspecified)          61.8% (inactive)
 4  COc1ccc(Oc2nc(Nc3ccc(N4CCOCC4)cc3)ncc2NC(=O)c2cc(OC)cc(OC)c2)cc1          67.7% (inactive)
 5  COc1cc(F)c(/C=C/c2cc(/C=C/c3cc(OC)c(OC)cc3F)n(-c3cc(F)cc(F)c3)n2)cc1OC          11.5% (inactive)
 6  O=C(/C=C/c1cccs1)Nc1ncc(Cc2ccc(Cl)c(Cl)c2)s1          28.9% (inactive)
 7  CCNC(=O)Oc1ccc(/C(=C(/C)Cc2ccc(OC)cc2)c2ccc(OCCN(CC)CC)cc2)cc1            2.84% (active)
 8          CCOc1ccccc1NC(=O)c1cc2ccccc2cc1O          45.4% (inactive)
 9  COc1ccc(CN2CCc3c(Cl)nc(N)nc3C2=O)c(OC)c1  -36.7% [100 µM] (active)
10  COc1ccc(S(=O)(=O)Nc2cc(Sc3cccc4cccnc34)c(O)c3ccccc23)cc1          10.9% (inactive)

###

# System: OVCAR-8 ovarian
# Run Description: NCI-60 one-dose screen, 48 h
# Particulars: 10 µM unless noted
Compounds without any hit were thinned out: in the full panel of roughly 83,000, 20% have a hit. Activity calls are given as the source filed them. How the source made its calls: active means growth percent below 10; inactive means the rest.
Classes used: 1 (yes) for active, 0 (no) for inactive

>>> print(df.to_string())
                                   molecule    group
0  Cc1ccc(Cl)cc1N1CCN(C(=O)[C@@H]2C[C@@H]2c2ccc(F)cc2)CC1   0 (no)
1  Cn1cc(-c2csc(-c3c[nH]c4ccc(F)cc34)n2)c2cnccc21  1 (yes)
2    O=C(Oc1ccc(CO[N+](=O)[O-])cc1)c1ccccc1  1 (yes)
3  C#Cc1cc(C(=O)Nc2ccc(CN3CCN(C)CC3)c(C(F)(F)F)c2)ccc1C   0 (no)
4  Cc1nc2sc(C(=O)Nc3cccc4ncccc34)c(N)c2cc1C(C)O (stereo not given)   0 (no)
5   CCCCn1c(C(=O)c2c[nH]c3ccccc23)n[nH]c1=S   0 (no)
6    COc1ccc(/C=C(\C#N)c2cc3ccccc3[nH]2)cc1   0 (no)
7  FC(F)(F)Sc1ccc(/C=C/c2cc(/C=C/c3ccc(SC(F)(F)F)cc3)n(-c3ccccc3)n2)cc1   0 (no)
8  CONC1=Nc2cc(NC(N)=NCc3ccccc3)c(N(C)C3CCCCC3)cc2OC1   0 (no)
9  COc1ccc(/C(C)=C(\c2ccc(OCCN3CCOCC3)cc2)c2ccc(OC(=O)C3CCCCC3)cc2)cc1   0 (no)
